System: chicken pre-B cell line DT40
Test Summary: Thymidine incorporation toxicity assay in isogenic DT40 cells with or without KU70, RAD52, RAD54
Assay type: cell-based
Condition Notes: DT40 with or without RAD52 or RAD54
Experimental Readout: effect of loss of homologous recombination (RAD52 or RAD54) on toxicity

Input Smiles: O=C(CCl)Nc1ccc(C(=O)N/N=C/c2ccc(Cl)cc2)cc1
Obs Value: only marginally affected

Input Smiles: O=c1c(Cl)c(Cl)cnn1CCCl
Obs Value: only marginally affected

* * *

Test system: Rat1a fibroblasts
Test Summary: Effect of exposure time on toxicity in Rat1a fibroblasts
Type: cell-based, rat
Condition Notes: additional experiments
Experimental Readout: toxicity with a two hour exposure

Compound: COc1cc([C@@H]2c3cc4c(cc3[C@@H](O[C@@H]3O[C@@H]5CO[C@@H](C)O[C@H]5[C@H](O)[C@H]3O)[C@H]3COC(=O)[C@H]23)OCO4)cc(OC)c1O [etoposide, reference compound]
Obs Value: nearly full toxicity

Compound: O=C(CCl)Nc1ccc(C(=O)N/N=C/c2ccc(Cl)cc2)cc1
Obs Value: nearly full toxicity

Compound: O=c1c(Cl)c(Cl)cnn1CCCl
Obs Value: nearly full toxicity
